Test: in vitro
Settings: mouse, liver microsomes
Description: Stability in mouse liver microsomes assessed as parent compound remaining at 3 uM after 10 mins by mass spectrometric method

# smiles, remaining at 10 min, 3 µM, %
measured = [
    ("CC(C)c1cc(F)cc(Oc2c(Cl)cc(NC(=O)Cc3cccnc3)cc2Cl)c1", 81),
]

---

Assay: in vitro
Details: rat, liver microsomes
Description: Stability in rat liver microsomes assessed as parent compound remaining at 3 uM after 10 mins by mass spectrometric method

# smiles, remaining at 10 min, 3 µM / %
data = [
    ("CC(C)c1cc(F)cc(Oc2c(Cl)cc(NC(=O)Cc3cccnc3)cc2Cl)c1", 78),
]

---

Experiment: in vitro
Details: human, liver microsomes
Description: Stability in human liver microsomes assessed as parent compound remaining at 3 uM after 10 mins by mass spectrometric method

# smiles, remaining at 10 min, 3 µM / %
records = [
    ("CC(C)c1cc(F)cc(Oc2c(Cl)cc(NC(=O)Cc3cccnc3)cc2Cl)c1", 79),
]

The values you see were collected from ChEMBL document CHEMBL4680341.
